molecules and their reported GI50
tested on: HT-29; assay: NCI tumour cell line growth inhibition, 48 h
Counter-ions that a name gives are not always drawn. The source made the active and inactive calls. Rule as the data show it: active = GI50 up to about 1.1 µM and inactive = higher.
MEASURED_METRIC: GI50

INSERT INTO measurements (molecule, recorded_value) VALUES
  ('CCc1ccc(COC(=O)C2=C(C)NC(C)=C(C(=O)OCc3ccc(CC)cn3)C2C2=COCCO2)nc1', '21.4 µM (inactive)'),
  ('O=c1c2ccccc2ncn1COCc1ccccc1', '> 100 µM (inactive)'),
  ('CC1=C(C(=O)CC(=O)C(=O)Nc2cccc(Cl)c2C)Sc2ccccc2N1', '> 100 µM (inactive)'),
  ('Clc1cc2nsnc2c(Cl)n1', '21.7 µM (inactive)'),
  ('CC(CN1c2ccccc2Sc2ccccc21)N(C)C (centres undefined) [PROMETHAZINE HYDROCHLORIDE]', '16.4 µM (inactive)'),
  ('COC(=O)CCC(NC(=S)N/N=C(\C)c1nccs1)C(=O)OC (centres undefined)', '73.5 µM (inactive)'),
  ('CC(C)(C)OC(=O)CC(NC(=O)OC(C)(C)C)C(=O)NC(C(=O)O)C(O)c1ccccc1 (centres undefined)', '75.3 µM (inactive)'),
  ('CC(=O)NC1C(OCc2ccccc2)OC(COC(=O)CCCCCCCCCCNc2ccc([N+](=O)[O-])c3[nH]c4ccccc4c(=O)c23)C(O)C1OC(C)C(=O)NC(C)C(=O)NC(CCC(N)=O)C(=O)OCc1ccccc1 (centres undefined)', '> 100 µM (inactive)'),
  ('COc1cccc2c1C(=O)c1c(O)c3c(c(O)c1C2=O)CC(O)(C(C)=O)CC3OC1CC([N+](C)(C)C)C(O)C(C)O1 (centres undefined)', '94.2 µM (inactive)');
